Data provenance: PubChem BioAssay AID1963826

Exercise: for every item that follows, state its recorded viability, T/C.
tested on: 926638-142-R-J1-PDC complex spheroid viability; test: Anticancer human tumor 926638-142-R-J1-PDC patient-derived endometrial carcinoma cell line growth inhibition [POLQ]; details: second compound 0.0316 µM; first compound 0.316 µM; stronger effect = lower value
Answers are plain numbers, in %.

C#Cc1c(F)ccc2cc(O)cc(-c3ncc4c(N5CC6CCC(C5)N6)nc(OCC56CCCN5CC(F)C6)nc4c3F)c12 (stereo not drawn) + Cc1cccc(N(C)C(=O)C2C(O)CCN2c2nc(C)cc(C(F)(F)F)c2C#N)c1    69.9

List reported viability, T/C for each of these molecules:
1. CCc1c2c(nc3ccc(O)cc13)-c1cc3c(c(=O)n1C2)COC(=O)[C@]3(O)CC + COC1C(OC(N)=O)C(O)C(Oc2ccc3c(O)c(NC(=O)c4ccc(O)c(CC=C(C)C)c4)c(=O)oc3c2C)OC1(C)C
2. CC1COCCN1c1cc(-c2ccnn2C)c2ccnc(-c3ccn[nH]3)c2n1 (stereo not drawn) + Nc1ccc(C#CCN(C(=O)Cc2ncc(C(F)(F)F)cc2C(F)(F)F)c2ccc(F)cc2)nn1

[7.89, 60.3]

###

tested on: 926638-142-R-J1-PDC complex spheroid viability; assay: Anticancer human tumor 926638-142-R-J1-PDC cell line growth inhibition [POLQ]; conditions: second compound 1 µM; first compound 0.1 µM; stronger effect = lower value;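 further: spheroids exposed to drugs for one week before readout; percent viability relative to DMSO vehicle control wells set as 100%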
// classify: if (viability, T/C < 90%) 1 else -1

# count of solved cases: 5
Nc1ccn(C2OC(CO)C(O)C2(F)F)c(=O)n1 (stereo unspecified) + Nc1ccc(C#CCN(C(=O)Cc2ncc(C(F)(F)F)cc2C(F)(F)F)c2ccc(F)cc2)nn1    1
O=c1[nH]cc(F)c(=O)[nH]1 + Nc1ccc(C#CCN(C(=O)Cc2ncc(C(F)(F)F)cc2C(F)(F)F)c2ccc(F)cc2)nn1    1
O=C(Nc1ccc(O)c(NS(=O)(=O)c2ccc(F)cc2)c1)c1ccc(-c2ccccc2)cc1 + Cc1cccc(N(C)C(=O)C2C(O)CCN2c2nc(C)cc(C(F)(F)F)c2C#N)c1    -1
CCc1c2c(nc3ccc(O)cc13)-c1cc3c(c(=O)n1C2)COC(=O)[C@]3(O)CC + Nc1ccc(C#CCN(C(=O)Cc2ncc(C(F)(F)F)cc2C(F)(F)F)c2ccc(F)cc2)nn1    1
CCc1c2c(nc3ccc(O)cc13)-c1cc3c(c(=O)n1C2)COC(=O)[C@]3(O)CC + Cc1cccc(N(C)C(=O)C2C(O)CCN2c2nc(C)cc(C(F)(F)F)c2C#N)c1    1

Does the reported viability, T/C of the following molecule sit strictly below 90%? COc1cccc(OCCCN)c1-c1cc(Nc2cnc(C#N)cn2)n[nH]1 + Nc1ccc(C#CCN(C(=O)Cc2ncc(C(F)(F)F)cc2C(F)(F)F)c2ccc(F)cc2)nn1
1

For this molecule, is viability, T/C lower than 90%? COc1cc(C2c3cc4c(cc3C(OC3OC5COC(C)OC5C(O)C3O)C3COC(=O)C23)OCO4)cc(OC)c1O (stereo unspecified) + COC1C(OC(N)=O)C(O)C(Oc2ccc3c(O)c(NC(=O)c4ccc(O)c(CC=C(C)C)c4)c(=O)oc3c2C)OC1(C)C
1

Is viability, T/C strictly under 90% for the entry CC(C)n1c(=O)n(C)c2cnc3cc(F)c(-c4ccc(OCCCN5CCCCC5)nc4)cc3c21 + Nc1ccc(C#CCN(C(=O)Cc2ncc(C(F)(F)F)cc2C(F)(F)F)c2ccc(F)cc2)nn1 ?
-1

Lab note: viability, T/C threshold 90%. Does this molecule come in strictly under it? Nc1ccn(C2OC(CO)C(O)C2(F)F)c(=O)n1 (stereo unspecified) + Cc1cccc(N(C)C(=O)C2C(O)CCN2c2nc(C)cc(C(F)(F)F)c2C#N)c1
1

Confirm or reject: viability, T/C of COc1cccc(OCCCN)c1-c1cc(Nc2cnc(C#N)cn2)n[nH]1 + Cc1cccc(N(C)C(=O)C2C(O)CCN2c2nc(C)cc(C(F)(F)F)c2C#N)c1 lies strictly below 90%
1
